Recorded values, source patent US12428408B2.

# Subject Of Test: 5-HT1D (r) (Rattus norvegicus, UniProt P28565)
# Construct: host or cells: CHO cells
# Sequence (P28565 whole entry): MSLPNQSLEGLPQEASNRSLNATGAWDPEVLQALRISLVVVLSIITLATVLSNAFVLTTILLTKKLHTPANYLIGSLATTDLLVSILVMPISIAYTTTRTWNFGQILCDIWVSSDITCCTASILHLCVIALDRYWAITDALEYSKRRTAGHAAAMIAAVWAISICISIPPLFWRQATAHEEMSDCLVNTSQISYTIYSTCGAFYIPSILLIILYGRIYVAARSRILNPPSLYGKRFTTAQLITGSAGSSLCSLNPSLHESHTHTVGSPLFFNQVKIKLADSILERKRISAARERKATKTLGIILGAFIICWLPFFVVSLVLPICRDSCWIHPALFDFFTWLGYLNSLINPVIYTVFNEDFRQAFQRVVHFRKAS
# Test Description: Competition assay to measure binding affinity at 5-HT1D receptor
# Test Parameters: test ligand 10 μM; [3H]serotonin 1 nM
Measurement Type: HT1D, percent of control-specific binding (%)
One number for each entry, in %.

Field: example entries. Status: answers known.
[
  {
    "Compound": "CC(Cc1ccc2c(c1)OCO2)N1CC(NC(=O)OC(C)(C)C)C1 (stereo not drawn)",
    "Numeric Result": 13
  },
  {
    "Compound": "c1cc2c(cc1CCN1CCOCC1)OCO2",
    "Numeric Result": 0
  },
  {
    "Compound": "N#Cc1ccc2[nH]cc(CCCCN3CCN(c4ccc5oc(C(N)=O)cc5c4)CC3)c2c1 [Vilazodone, reference compound]",
    "Numeric Result": 97
  },
  {
    "Compound": "CCCOc1c(OC)cc(CCN)cc1OC [proscaline, reference compound]",
    "Numeric Result": 25
  }
]

Answer for every listed entry: what is its HT1D, percent of control-specific binding? The entries follow.
1. COc1cc2c(cc1CCN1CCCC1)OCO2
2. CC(Cc1ccc2c(c1)OCO2)N1CCOCC1 (stereo not drawn)
3. CC(Cc1ccc2c(c1)OCCO2)NC1CCC1 (stereo not drawn)

1. 28
2. 0
3. 0

Answer for every listed entry: what is its HT1D, percent of control-specific binding? The entries follow.
1. COc1cc2c(cc1CNC(C)Cc1ccc3c(c1)OCCO3)OCO2 (stereo not drawn)
2. COc1cc2c(cc1CC(=O)NCCO)OCO2

[10, 5]

Answer for every listed entry: what is its HT1D, percent of control-specific binding? The entries follow.
1. COc1ccc2[nH]cc(CCNC(C)=O)c2c1 [Melatonin, reference compound]
2. COc1cc(CC(C)N)c(OC)cc1Br (stereo not drawn) [DOB, reference compound]
3. FC1(F)Oc2ccc(CCN3CCCC3)cc2O1
4. CC(Cc1ccc2c(c1)OCO2)NN(C)C (stereo not drawn)
5. CC(Cc1ccc2c(c1)OCCO2)NCc1cc2c(cc1Br)OCO2 (stereo not drawn)
6. CC(NC(C)(C)C)C(=O)c1cccc(Cl)c1 (stereo not drawn) [Bupropion, reference compound]

1. 13
2. 84
3. 1
4. 0
5. 83
6. −1

Answer for every listed entry: what is its HT1D, percent of control-specific binding? The entries follow.
1. c1cc(CCN2CCCC2)c2c(c1)OCO2
2. CC(Cc1ccc2c(c1)OCCO2)NCc1cc2c(cc1Br)OCCO2 (stereo not drawn)
3. O=C(Cc1ccc2c(c1)OC(F)(F)O2)N1CCCC1
4. COc1ccc2cccc(CCNC(C)=O)c2c1 [Agomelatine, reference compound]

[44, 31, 2, 10]

Answer for every listed entry: what is its HT1D, percent of control-specific binding? The entries follow.
1. CC(Cc1ccc2c(c1)OCCO2)N1CC(NC(=O)OC(C)(C)C)C1 (stereo not drawn)
2. N#CC(Cc1ccc2c(c1)OCO2)NC1CCC1 (stereo not drawn)

37
14

* * *

Consider the following molecules; for each one, report its HT1D, percent of control-specific binding.
# Subject Of Test: 5-HT1D (r) (Rattus norvegicus)
# Construct: host or cells: CHO cells
# Test Description: Competition assay to measure binding affinity at 5-HT1D receptor
# Test Parameters: test ligand 10 μM; [3H]serotonin 1 nM
Give bare numbers, in %.

Answer for every listed entry: what is its HT1D, percent of control-specific binding? The entries follow.
1. COc1cc2c(cc1CNC(C)Cc1ccc3c(c1)OCO3)OCO2 (centres unmarked) [A(V)]
2. CC(Cc1ccc2c(c1)OCO2)NCc1cc2c(cc1Br)OCO2 (centres unmarked) [A(VI)]
3. CCOc1c(OC)cc(CCN)cc1OC [escaline]
4. CC(Cc1ccc2c(c1)OCCO2)NCc1ccc2c(c1)OCCO2 (centres unmarked) [A(XIII)]

0
47
42
38

Answer for every listed entry: what is its HT1D, percent of control-specific binding? The entries follow.
1. O=C(Cc1cc2c(cc1Br)OCO2)NCCO [A(XIX)]
2. CON(C)C(C)Cc1ccc2c(c1)OCO2 (centres unmarked) [A(XVIII)]
3. CN(C)CCCN1c2ccccc2CCc2ccccc21 [Imipramine, reference compound]
4. N[C@@H](Cc1c[nH]c2ccccc12)C(=O)O [tryptophan, reference compound]
5. COc1cc2c(cc1CCNCCO)OCO2 [A(XXIV)]
6. CC(Cc1ccc2c(c1)OCO2)N1CCC1 (centres unmarked) [A(II)]

1: 0; 2: 0; 3: 39; 4: 3; 5: 29; 6: 43

Given OCCNCCc1cc2c(cc1Br)OCO2 [A(XXX)] , state its recorded HT1D, percent of control-specific binding.
39
